- test-summary: Protein binding in human plasma at 20 uM after 5 hrs by LC/MS/MS analysis
- Assay type: ADME, cell-free
- experimental-parameters: read-out: PPB (converted)

# compound, fraction unbound at 5 h, 20 µM
rows = [
    ("Cc1cc(C(=O)O)c2c(C(C)C)nn(-c3ccc(Cl)cc3)c2n1", 0.003),
]
